target: MAGEB2 peptide … / HLA-A*02:01 / b2m (human); test: FACS
Readout label: Kd (nM)
Unit nM implied. Number only.

- Binder: "MA 09-F12 CC (D1U) (antibody, V domains shown) VH: QITLKESGPALVKPTQTLTLTCTFSGFSFTTHKMGVDWIRQPPGKCLEWLALIYWNDDKRYSPSLQSRLTITKDTSKNQVVLTMTNMDPVDTATYYCAYRRYNWNYENWFDPWGQGTLVTVSS VL: DIQMTQSPSSLSASVGDRVTITCQASQDISNYLNWYQQKPGKAPKLLIYAASSLQSGVPSRFSGRGSGTDFTLTISSLQPEDFATYYCQQSYYYPTLFGCGTKVEIK"
  Kd [nM]: 0.5
- Binder: "MA 09-G11 CC (Y9Q) (antibody, V domains shown) VH: QITLKESGPMLVKPTQTLTLTCTFSGFSFTTHKMGVDWIRQPPGKCLEWLALIYWNDDKRYSPSLQSRLTITKDTSKNQVVLTMTNMDPVDTATYYCAYRRYNWNYENWFDPWGQGTLVTVSS VL: DIQMTQSPSSLSASVGDRVTITCRASQFISSYLNWYQQKPGKAPKLLIYAASSLQSGVPSRFSGRGSGTDFTLTISSLQPEDFATYYCQQSYQSPTTFGCGTKVEIK"
  Kd [nM]: 0.6
- Binder: "MA 03-C7_AS CC (G2H) (antibody, V domains shown) VH: EVQLLESGGGLVQPGGSLRLSCAASGFTFSSHAMSWVRQAPGKCLEWVSAISGSGGGTYYAASVKGRFTISRDNSKNTLYLQMNSLRAEDTAVYYCATGKGVHLGFDYWGQGTLVTVSS VL: SYVLTQPPSVSVAPGQTARITCGGNNIGSKSVHWYQQKPGQAPVMVVYDDNDRPSGIPERFSGSNSGNTATLTISRVEAGDEADYYCQVWDYERPAMVFGCGTKLTVL"
  Kd [nM]: 1.5
- Binder: "MA 09-C7 CC (K9T) (antibody, V domains shown) VH: QVTLKESGPALVKPTQTLTLTCTFSGFSFTTHKMGVDWIRQPPGKCLEWLAEIHSEDDKRYSPSLQSRLTITKDTSKNQVVLTMTNMDPVDTATYYCAYRRYNWNYENWFDPWGQGTLVTVSS VL: DIQMTQSPSSLSASVGDRVTITCRASQSISNYFNWYQQKPGKAPKLLIYAASSLQSGVPSRFSGSGSGTDFTLTISSLQPEDFATYYCQQSYITPFTFGCGTKVEIK"
  Kd [nM]: 0.9

## Input Can you look up the measured Kd of MA 10-D3 CC (O6B) (antibody, V domains shown) VH: EVQLVESGGGLVQPGGSLRLSCAASGFTFSNAWMSWVRQAPGKCLEWVGRITSSRYGGTTDYAAPVKGRFTISRDDSKNTLFLQMNSLKTEDTAVYYCTTPSYSGSYYNYFSVMDVWGQGTTVTVSS VL: DIQMTQSPSSLSASVGDRVTITCRTSQSISSYLNWYQQKPGRAPKLLIFAASSLQGGVPSRFSGSGSGTDFTLTISSLQPEDFATYYCQQTYSMPFTFGCGTKVDIK for me?
## Output 1.1

Data origin, for the record: patent US12312412
